Tested on: SF-295 CNS
Experiment: NCI-60 one-dose screen, 48 h
Details: 10 µM
Compounds without any hit were thinned out: in the full panel of roughly 83,000, 20% have a hit. Activity calls are given as the source filed them. How the source made its calls: active means growth percent below 10; inactive means the rest.
Permitted responses: class 1 (active), class 0 (inactive)

Below, 6 molecules whose answers are already recorded.
> print(dat)
                                   molecule  classification
1  CCN(CC)CCC(=O)Nc1cccc2c1C(=O)c1c(c(O)c3ccccc3c1O)C2=O         class 0
2  COc1cc(CNc2ccccc2C(=O)N2CCN(C(=O)c3cc(-c4cc(OC)c(OC)c(OC)c4)n4nc(-c5ccccc5)cc4n3)CC2)cc(OC)c1OC         class 1
3   Nc1nc(-c2ccccc2Cl)cc(-c2ccc(Cl)cc2Cl)n1         class 0
4  COc1ccc(/C(=C2/O[C@@H]([C@H]3COC(C)(C)O3)[C@H]3OC(C)(C)O[C@@H]23)c2cc(OC)c(OC)c(OC)c2)cc1O         class 0
5  Cc1nc2ccccc2c(N)c1-c1cc(C)c2c(C)nc3ccccc3c2n1         class 0
6  COc1cc(Cl)cc(-c2nn(-c3cccc(NC(=O)Nc4ccc(Cl)c(Cl)c4)c3)cc2-c2ccncc2)c1         class 1

**Query** How did this test come out for O=C(Nc1cccc(-n2cc(-c3ccncc3)c(-c3ccc(O)c(Cl)c3)n2)c1)Nc1cccc(C(F)(F)F)c1 ?
**Result** class 1

**Query** Short answer needed: outcome of this test for CNc1ncc(-c2ccc(C(F)(F)F)cc2)c(NC2CCCCCC2)n1 ?
**Result** class 0

**Query** For this molecule, state the assay outcome: COc1cc(CNCCCCCCN2C(=O)c3cccc4cccc(c34)C2=O)ccc1O
**Result** class 0

**Query** Look up the recorded call for COc1ccc(Nc2cc(C)nc(NCCCNc3ccnc4cc(Cl)ccc34)n2)cc1 in this test.
**Result** class 1

**Query** Just curious, what result did COc1ccc2nc3ccccc3c(NCCNCC(C)O)c2c1 (configuration not stated) get here?
**Result** class 1

====

Test system: DU-145 prostate
Assay: NCI-60 one-dose screen, 48 h (100 = growth as untreated, 0 = no growth, -100 = all killed)
Settings: 10 µM
About 83,000 compounds went through this panel and 20% of them were active in at least one assay; those are over-represented in the sample as a whole.
# y = growth below 10% (exclusive); n = growth at/above 10%

Recorded results for 4 compounds are shown here.
> print(dat)
                                   compound  classification
1  CS(=O)(=O)Nc1cccc(-c2cc(-c3ccccc3Cl)c(C#N)c(N)n2)c1               y
2  COc1ccc2c(c1OC)O/C(=C\c1ncc([N+](=O)[O-])n1C)C2=O               y
3  O=C(CC(C(=O)c1ccccc1)N1CCOCC1)c1ccccc1 (stereo not given)               n
4  COc1ccc2c(c1)C(=O)c1c-2c(OCCN2CCCCC2)nc2ccc(OC)cc12               n

// switching to the query compound
**Query** Dear colleague, could you confirm whether growth of Cc1cc(=O)[nH]c(N/N=C/c2ccccc2O)n1 falls below 10%? Thanks.
**Result** n
